Cited source for all entries: ChEMBL document CHEMBL3779815

MIC for assorted molecules
test system: Aspergillus niger; assay: Antifungal activity against Aspergillus niger clinical isolate after 18 to 24 hrs by micro-dilution method; type: functional

{"columns": ["smiles data", "MIC"],
 "data": [
  ["COc1cc(O)c(C(=O)/C=C/c2ccc(OCc3cn(-c4ccc(Cl)cc4)nn3)c(OCc3cn(-c4ccc(Cl)cc4)nn3)c2)c(OC)c1", "> 100 µg/mL"],
  ["COc1cc(OC)c2c(=O)cc(-c3ccc(OCc4cn(-c5ccc(F)cc5F)nn4)c(OC)c3)oc2c1", "> 100 µg/mL"],
  ["COc1cc(O)c(C(=O)/C=C/c2ccc(OCc3cn(-c4ccc(F)c(Cl)c4)nn3)c(OCc3cn(-c4ccc(F)c(Cl)c4)nn3)c2)c(OC)c1", "> 100 µg/mL"]
]}
